Target: ScPex13
Assay: SPOT peptide array binding signal intensity (averaged, normalized) (arbitrary units (background-subtracted, floor 0; scale differs between SH3 domains)); higher = stronger binding of the SH3 domain to the peptide
Everything with SPOT peptide array binding signal intensity lower than 800 is label 0; everything else, including exactly 800, is label 1.

BINDER | GROUP_LABEL
KRKRFNLLLPKPYLT | label 0
RMVRRRPLRVQFSAR | label 0
TKPTPPPKPSHLKPK | label 1

Lookup: Could you tell me if the measured SPOT peptide array binding signal intensity of "QFDLKMPSKPIHNLK" reaches 800 or more?
Found: label 0

Lookup: Does the binder "QPPLPSSAPPIPTSH" have recorded SPOT peptide array binding signal intensity that is 800 or more?
Found: label 0

Lookup: Answer whether SPOT peptide array binding signal intensity of "RAPPPVPKKPSSRIA" is greater than or equal to 800.
Found: label 1

Value source: the supplement of paper PMC4466140
